TESTED SYSTEM: T1, cSIRPαV1D1 with histidine tag (cynomolgus monkey (Macaca fascicularis), UniProt Q5TFQ8 30-146 (human entry))
T1 construct: also called cynomolgus monkey SIRPαV1D1; not shown: histidine tag
T1 chain: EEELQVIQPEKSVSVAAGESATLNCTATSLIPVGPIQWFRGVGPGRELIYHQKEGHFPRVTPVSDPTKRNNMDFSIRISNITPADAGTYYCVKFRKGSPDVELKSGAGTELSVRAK
METHOD DESCRIPTION: SPR (Biacore 3000), IgG captured on anti-human IgG, His-tagged D1 analyte
READOUT TYPE: Kd (nM)
Provide the reading as a plain figure in nM.

BINDER	READOUT TYPE	TEST RESULT
Ab11_G2 (antibody, human IgG2, V domains shown, same antibody as Ab11_G4 except human IgG2 CH1, hinge, CH2 and CH3) VH: EVQLVESGGGLVKPGGSLRLSCAASGFTFSSYVMSWVRQTPGKGLEWVATISSGGTYTYYPDSVKGRFTLSRDNAKNSLYLQMNSLRAEDTAVYYCASQLTGSEFDYWGQGTTVTVSS VL: DIVITQSPASLAVSLGERATISCRASESVDSYGNSFMHWYQQKPGQPPKLLIYRASNLESGVPDRFSGSGSRTDFTLTINPLQAEDVATYYCHQSGDLPWTFGGGTKVEIKR	Kd	98

Consider the binder Ab11_G4 (antibody, human IgG4 S228P, kappa, V domains shown, human IgG4 format) VH: EVQLVESGGGLVKPGGSLRLSCAASGFTFSSYVMSWVRQTPGKGLEWVATISSGGTYTYYPDSVKGRFTLSRDNAKNSLYLQMNSLRAEDTAVYYCASQLTGSEFDYWGQGTTVTVSS VL: DIVITQSPASLAVSLGERATISCRASESVDSYGNSFMHWYQQKPGQPPKLLIYRASNLESGVPDRFSGSGSRTDFTLTINPLQAEDVATYYCHQSGDLPWTFGGGTKVEIKR and give its measured Kd.
127

The values you see were collected from patent US20220235144A1.
